# assayedSystem: T1, melanocortin 5 receptor (MC5R) (UniProt P33032 1-325, limits assumed)
# T1 construct: whole, on cells; Membrane preparations; also called MCR-5
# T1 sequence (P33032 whole entry): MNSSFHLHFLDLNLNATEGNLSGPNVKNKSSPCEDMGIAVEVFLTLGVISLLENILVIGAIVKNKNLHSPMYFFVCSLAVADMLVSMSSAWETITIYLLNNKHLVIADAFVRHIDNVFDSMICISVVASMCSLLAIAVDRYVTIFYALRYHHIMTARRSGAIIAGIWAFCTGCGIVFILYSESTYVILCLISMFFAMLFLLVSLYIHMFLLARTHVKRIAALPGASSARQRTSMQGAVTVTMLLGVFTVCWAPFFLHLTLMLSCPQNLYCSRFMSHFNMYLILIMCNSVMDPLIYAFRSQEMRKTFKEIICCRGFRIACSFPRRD
# runDescription: 125I-NDP-MSH competition, HEK293 membranes
[ ]: non-standard residue; d: D form. Stearyl = stearyl group
metric: Ki (nM)
Use nM as the unit, but write only the number.

So, Stearyl-H[dF]RW-NH2 [(Stearyl) HfRW (820)] ? Its Ki was 860
